target: EPPasePGM (Bombyx mori, UniProt Q7YTB0); test: Inhibition of EPPasePGM pNPP hydrolysis; type: biochemical; settings: IC50, 1 mM pNPP, 50 nM EPPasePGM, 37 °C; text values in mM
Sequence (Q7YTB0 399-660): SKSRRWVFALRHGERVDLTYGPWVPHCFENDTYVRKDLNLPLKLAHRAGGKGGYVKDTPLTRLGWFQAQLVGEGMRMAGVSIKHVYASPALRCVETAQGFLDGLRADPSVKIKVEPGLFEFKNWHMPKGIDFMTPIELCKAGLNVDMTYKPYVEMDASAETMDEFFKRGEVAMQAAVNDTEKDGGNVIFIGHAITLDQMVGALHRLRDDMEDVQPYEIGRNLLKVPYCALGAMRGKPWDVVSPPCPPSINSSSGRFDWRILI
IC50 reference
The answer is to be given in mM; state only the numeric part.

Compound: O=P(O)(O)O [Phosphate]
Value type: IC50
Endpoint result: 47

// next entry
The reported IC50 of the compound [O]=[V]([OH])([OH])[OH] [Vanadate] was 2.9

---

molecular target: EPPasePGM K292S (Bombyx mori, UniProt Q7YTB0, K622S); test: biochemical
Sequence (Q7YTB0 399-660 K622S): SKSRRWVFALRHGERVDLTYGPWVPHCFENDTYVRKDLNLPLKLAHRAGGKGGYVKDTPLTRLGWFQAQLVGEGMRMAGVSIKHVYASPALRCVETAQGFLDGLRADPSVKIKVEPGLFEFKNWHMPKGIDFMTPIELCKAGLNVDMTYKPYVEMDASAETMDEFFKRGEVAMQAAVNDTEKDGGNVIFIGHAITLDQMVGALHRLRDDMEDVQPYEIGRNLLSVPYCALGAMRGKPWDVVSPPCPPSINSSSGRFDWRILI
Value type: IC50 (µM)
The answer is to be given in µM; state only the numeric part.

The reported IC50 of the compound [O]=[W](=[O])([OH])[OH] [Tungstate] was 70
